# System: ATP;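 note: ATP exposure 15 min at 22 °C before imaging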
# assayProtocol: switch fluorescence ratio, 500 uM ATP over buffer (Cy3 cluster intensity, sum of 5 cycles each) (fold (ratio)); higher = stronger signal-on switching upon ATP binding; sequences stand for … in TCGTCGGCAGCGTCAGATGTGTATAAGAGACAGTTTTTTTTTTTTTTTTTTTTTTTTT…TC
# studyConditions: aptamer strand: ATP DNA aptamer (quencher-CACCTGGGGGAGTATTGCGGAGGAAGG + anchor), 100 nM annealed; ATP concentration: 500 uM
sequences and their reported switch fluorescence ratio
outcomeMeasure: switch fluorescence ratio

> print(dat)
       seqtext  quantitativereadout
 1  CTAGTGGGGA                 1.01
 2  CGGGACGCGT                 1.02
 3  AGTATTTATT                    1
 4  AAGTGACAGC                    1
 5  AGTAACGCGG                0.979
 6  CAAGGAAGGA                0.997
 7  TTCGGAGGAG                    1
 8  GTTATTTGGA                0.971
 9  AACTATGGTA                0.992
10  ACTTTTTTTT                 1.01
11  CGGATTTGGA                0.976
12  ACGCTTTAGT                 1.01
13  GGTTAAACGG                 1.02
14  CGATTAGTTG                0.998
15  AGGGCTGTGT                0.999
16  TATCATCGGT                    1
17  TCGTGATTTT                    1
18  CGAAGTGGCC                 1.02
19  AACTGGACTT                 1.11
20  TATGAAAGTA                0.999
21  TTAGGGTGCC                 1.02
22  GCCGTATGCG                0.992
23  CAGATAGACG                 1.04
24  CGATATATTG                0.988
25  TGTTGCAGAG                 1.03
26  ACTGTTTTCC                 1.07
27  AAAGCCGTTT                  1.2
28  CGACTGATAT                 1.08
29  CTTAAAGGTC                 1.02

---

# Test system: ATP;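 note: ATP exposure 15 min at 22 °C before imaging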
# assayProtocol: switch fluorescence ratio, 500 uM ATP over buffer (Cy3 cluster intensity, sum of 5 cycles each) (fold (ratio)); higher = stronger signal-on switching upon ATP binding; sequences stand for … in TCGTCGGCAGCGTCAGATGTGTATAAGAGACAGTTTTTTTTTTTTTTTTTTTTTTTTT…TC
# studyConditions: aptamer strand: ATP DNA aptamer (quencher-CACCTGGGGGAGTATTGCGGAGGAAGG + anchor), 100 nM annealed; ATP concentration: 500 uM
outcomeMeasure: switch fluorescence ratio

> print(dat)
       seqtext  quantitativereadout
 1  AGGTACGACG                 0.99
 2  GTTATTGGGT                0.988
 3  GATTAAAAAG                 0.99
 4  TCCAAAGATG                0.989
 5  GCTGGGTTGG                    1
 6  GTCTTTTAGG                0.998
 7  ATTGTGCTTG                    1
 8  GCTTTATAGT                0.985
 9  TTATTGGGGA                0.974
10  ACAGCGGGGT                    1
11  TGGGAAGTCC                    1
12  ATCAAATCGG                 1.01
13  GGAAGGAGTC                0.991
14  GGGGCCAATT                 1.01
15  AAAGGGTTTG                 1.01
16  CCGGTAGGCC                0.978
